B1: Arginine-glutamic acid dipeptide repeats protein, residues 502 to 543; numbered along this chain, Q9P2R6 (parent)
chain: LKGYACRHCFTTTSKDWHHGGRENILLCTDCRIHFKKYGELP

Variants of: B1
Assay Text: abundance fitness (aPCA) (normalised: wild type 0, dead -1); higher = more abundant; growth selection in yeast, the domain comes from the species named
Stated Conditions: Homo sapiens
Readout Name: abundance fitness
Note: the reply should be a number with no unit written.

abundance fitness for H18W is -0.21

abundance fitness for G21S is -0.056

abundance fitness for N24W is -0.189

abundance fitness for A5H is 0.044

abundance fitness for Y4D is -0.037

abundance fitness for C6G is -0.878

abundance fitness for E40T is -0.078

abundance fitness for T11C is -0.219

abundance fitness for H19F is -0.064

abundance fitness for T12Q is -0.159

abundance fitness for H34L is -0.282

abundance fitness for G20H is -0.203

abundance fitness for R7F is -0.185

abundance fitness for W17K is -0.274

abundance fitness for I33W is -0.059

abundance fitness for L1G is 0.043

abundance fitness for T29Q is -0.106

abundance fitness for F10S is 0.015

abundance fitness for N24M is -0.107

abundance fitness for R7P is -0.293

abundance fitness for R32A is -0.011

abundance fitness for Y38G is -0.185
